The entries below are paired with their reported protein stability index.
B1: ZNF449 (parent)
chain: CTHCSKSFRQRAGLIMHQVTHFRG

- Variants of: B1
- TEST_SUMMARY: protein stability index of a GFP-peptide fusion (GPS, HEK-293T) (PSI 1-6); higher = more stable;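 further: lentivirally expressed fusions sorted by FACS into six bins by GFP to DsRed ratio, PSI derived from sequencing read proportions per bin multiplied by bin number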
- TEST_SETTINGS: c terminus: a fixed tail appended

MUTATION_NAME	protein stability index
Q18S	2.48
Q10M	1.86
A12C	2.29
G13S	1.52
Q18N	1.53
Q18F	1.67
M16V	2
A12F	2.25
K6E	1.58
T2N	2.29
Q10T	2.75
S5F	1.7
T2R	2.18
C4N	2.17
F22E	1.98
G13F	1.95
F8M	1.38
Q18G	1.32
